- target: T1, human ACTH 1-39 (human)
- T1 construct: unlabelled synthetic peptide (Bachem or American Peptide) as used in SPR and cell assays; also called huACTH 1-39; huACTH(1-39)
- T1 peptide: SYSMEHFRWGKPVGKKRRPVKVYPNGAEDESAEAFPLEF
- methodDescription: SPR ProteOn, antibody immobilised
quantityKind: kon (M⁻¹ s⁻¹)
Give bare numbers, in M⁻¹ s⁻¹.

Below, 2 binders whose answers are already recorded.
binder | quantityKind | unitInfo | readoutValue
Ab5 (antibody, human IgG1, kappa, N297A, V domains shown, rabbit/human chimeric antibody, made in HEK-293) VH: QSVEESGGRLVTPGTPLTLTCTVSGFSLSSYAMSWVRQAPGEGLEWIGIISDSGSTYYASWAKGRFTISKTSTTVDLKITSPTTEDTATYFCAREPEYGYDDYGDWVSDLWGQGTLVTVSS VL: DIVMTQTPASVSEPVGGTVTIKCQASQSISSYLSWYQQKPGQPPKLLIYRASTLASGVPSRFKGSGSGTQFTLTISDLECADAATYYCQSYYYSSSITYRNAFGGGTEVVVKR | kon | M⁻¹ s⁻¹ | 1e+06
Ab6 (antibody, human IgG1, kappa, N297A, V domains shown, rabbit/human chimeric antibody, made in HEK-293) VH: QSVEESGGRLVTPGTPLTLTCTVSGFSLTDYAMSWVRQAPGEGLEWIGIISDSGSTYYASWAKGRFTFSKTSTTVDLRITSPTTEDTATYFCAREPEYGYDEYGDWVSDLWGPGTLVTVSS VL: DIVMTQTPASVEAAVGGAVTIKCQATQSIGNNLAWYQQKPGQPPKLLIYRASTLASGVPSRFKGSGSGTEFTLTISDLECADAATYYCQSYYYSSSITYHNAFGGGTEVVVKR | kon | M⁻¹ s⁻¹ | 1e+06

Task item: For Ab4 (antibody, human IgG1, kappa, N297A, V domains shown, rabbit/human chimeric antibody, made in HEK-293) VH: QSVEESGGRLVTPGTPLTLTYTVSGFSLSKHDMIWVRQAPGKGLESIGIIYDDGDTYYANWAKGRFTISKTSTTVDLKIISPTTEDTATYFCVKGVSNIWGPGTLVTVSS VL: DVVMTQTPASVEAAVGGTVTIKCRASQSISVYLAWYQQKAGQPPKLLIYQASKLASGVPSRFKGSGSGTEFTLTISDLECADAATYYCQSYDGSSSSSYGVGFGGGTEVVVKR , write its kon.
Reply: 1e+06

Provenance of the data: patent US20230174641A1
